Biological target: UniProt:Q9NRA0
Sequence (Q9NRA0 whole entry): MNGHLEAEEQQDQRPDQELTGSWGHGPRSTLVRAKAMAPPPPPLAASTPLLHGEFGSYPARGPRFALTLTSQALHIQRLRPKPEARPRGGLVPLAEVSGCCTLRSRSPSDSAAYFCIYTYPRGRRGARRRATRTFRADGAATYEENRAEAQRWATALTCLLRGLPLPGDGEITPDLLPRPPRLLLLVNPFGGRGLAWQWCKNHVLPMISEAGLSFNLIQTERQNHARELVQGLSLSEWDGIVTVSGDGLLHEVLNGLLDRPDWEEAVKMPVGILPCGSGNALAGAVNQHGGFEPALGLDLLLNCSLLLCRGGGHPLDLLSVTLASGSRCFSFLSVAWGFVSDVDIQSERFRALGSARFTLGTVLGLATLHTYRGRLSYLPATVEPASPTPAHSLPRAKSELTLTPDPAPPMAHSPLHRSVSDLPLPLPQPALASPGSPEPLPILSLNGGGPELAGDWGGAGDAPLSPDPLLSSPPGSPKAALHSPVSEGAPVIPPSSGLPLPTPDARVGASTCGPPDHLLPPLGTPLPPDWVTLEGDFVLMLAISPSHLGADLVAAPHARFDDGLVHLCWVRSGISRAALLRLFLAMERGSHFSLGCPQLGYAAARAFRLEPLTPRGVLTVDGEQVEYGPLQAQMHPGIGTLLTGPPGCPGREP
Assay: Binding affinity to SphK2 in HEK293 cells assessed as direct target engagement incubated for 24 hrs followed by thermal denaturation at 61 degreeC by ITDRF-CETSA assay
property name: pIC50
Answers are plain numbers, as −log10 of the molar value.

Input line: Item under review: COc1ccc(Nc2nc(N)c(C(=O)c3ccc(OC)c(OC)c3)s2)cc1 . Reported pIC50?
Output line: 7.22

---

Molecular target: UniProt:Q9NYA1
Sequence (Q9NYA1 whole entry): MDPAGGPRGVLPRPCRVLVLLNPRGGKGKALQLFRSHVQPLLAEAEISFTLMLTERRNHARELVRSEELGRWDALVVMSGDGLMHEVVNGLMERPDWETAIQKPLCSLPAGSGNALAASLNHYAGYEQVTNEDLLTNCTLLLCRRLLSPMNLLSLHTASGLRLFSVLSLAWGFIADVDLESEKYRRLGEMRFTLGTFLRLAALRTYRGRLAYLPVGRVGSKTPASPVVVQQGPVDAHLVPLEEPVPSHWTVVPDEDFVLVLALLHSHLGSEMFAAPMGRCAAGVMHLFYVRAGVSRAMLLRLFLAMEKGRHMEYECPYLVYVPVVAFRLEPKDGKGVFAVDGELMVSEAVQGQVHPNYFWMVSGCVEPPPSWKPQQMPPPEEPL
Assay: Binding affinity to SphK1 in HEK293 cells assessed as direct target engagement incubated for 24 hrs followed by thermal denaturation at 61 degreeC by ITDRF-CETSA assay
Assay type: cell-based
property name: IC50 (nM)
Answers are plain numbers, in nM.

Input line: Give the measured IC50 of COc1ccc(Nc2nc(N)c(C(=O)c3ccc(OC)c(OC)c3)s2)cc1 .
Output line: 60
